test system: Klebsiella pneumoniae; test: Potentiation of rifampicin-mediated antibacterial activity against Klebsiella pneumoniae ATCC 13883 assessed as decrease in rifampicin MIC at 2 ug/ml by checkerboard method relative to control; type: functional
Non-standard residues stand in square brackets, D forms with d. Residues, ends and D or L forms follow the SMILES beside them. *: point of attachment. Decanoyl = CCCCCCCCCC(=O)*; Heptanoyl = CCCCCCC(=O)*; Octanoyl = CCCCCCCC(=O)*; Dab = NCC[C@H](N)C(=O)O; Cbz = O=C(OCc1ccccc1)*
assayMetric: fold change (FC)

compound="CCCCCCCC(=O)N[C@@H](CCN)C(=O)N[C@@H](CCN)C(=O)N[C@@H](CCN)C(=O)N[C@H](Cc1ccccc1)C(=O)N[C@@H](CC(C)C)C(=O)N[C@@H](CCN)C(=O)N[C@@H](C(=O)N[C@@H](CC(C)C)C(=O)N[C@@H](CCN)C(N)=O)C(C)C (Octanoyl-[Dab][Dab][Dab][dF]L[Dab][dV]L[Dab]-NH2)" measuredresult=256
compound="CC[C@H](C)[C@H](NC(=O)[C@H](CCN)NC(=O)OCc1ccccc1)C(=O)N[C@@H](CCN)C(=O)N[C@H](Cc1ccccc1)C(=O)N[C@@H](CC(C)C)C(=O)N[C@@H](CCN)C(=O)N[C@@H](C(=O)N[C@@H](CC(C)C)C(=O)N[C@@H](CO)C(N)=O)C(C)C (Cbz-[Dab]I[Dab][dF]L[Dab][dV]LS-NH2)" measuredresult="4096 - 8192"
compound="CCCCCCC(=O)N[C@@H](CCN)C(=O)N[C@H](C(=O)N[C@@H](CCN)C(=O)N[C@H](Cc1ccccc1)C(=O)N[C@@H](CC(C)C)C(=O)N[C@@H](CCN)C(=O)N[C@@H](C(=O)N[C@@H](CC(C)C)C(=O)N[C@@H](CO)C(N)=O)C(C)C)C(C)C (Heptanoyl-[Dab]V[Dab][dF]L[Dab][dV]LS-NH2)" measuredresult=4096
compound="CCCCCCCC(=O)N[C@@H](CCN)C(=O)N[C@H](C(=O)N[C@@H](CCN)C(=O)N[C@H](Cc1ccccc1)C(=O)N[C@@H](CC(C)C)C(=O)N[C@@H](CCN)C(=O)N[C@@H](C(=O)N[C@@H](CC(C)C)C(=O)N[C@@H](CCN)C(N)=O)C(C)C)[C@@H](C)CC (Octanoyl-[Dab]I[Dab][dF]L[Dab][dV]L[Dab]-NH2)" measuredresult=>=8192
compound="CCCCCCCCCC(=O)N[C@@H](CCN)C(=O)N[C@H](C(=O)N[C@H](C(=O)N[C@H](CC(C)C)C(=O)N[C@@H](CC(C)C)C(=O)N[C@@H](CCN)C(=O)N[C@@H](C(=O)N[C@@H](CC(C)C)C(=O)N[C@@H](CO)C(N)=O)C(C)C)[C@@H](C)O)[C@@H](C)CC (Decanoyl-[Dab]IT[dL]L[Dab][dV]LS-NH2)" measuredresult=<8
compound="CCCCCCC(=O)N[C@@H](CCN)C(=O)N[C@H](C(=O)N[C@@H](CCN)C(=O)N[C@H](Cc1ccccc1)C(=O)N[C@@H](CC(C)C)C(=O)N[C@@H](CCN)C(=O)N[C@@H](C(=O)N[C@@H](CC(C)C)C(=O)N[C@@H](CO)C(N)=O)C(C)C)[C@@H](C)CC (Heptanoyl-[Dab]I[Dab][dF]L[Dab][dV]LS-NH2)" measuredresult=>=8192
